protocolText: activity coefficient (dimensionless); of the first substance listed, at infinite dilution; xn = mol fraction of the nth substance listed
conditionLabel: 318.15 K; Liquid; Chromatography; x1 = 0
propertyName: activity coefficient

compound="Cc1ccccc1 [toluene] + CCCCn1cc[n+](C)c1.N#CN=C=[N-]" resultvalue=2.89
compound="C1CCCCCC1 [cycloheptane] + CCCCn1cc[n+](C)c1.N#CN=C=[N-]" resultvalue=32.6
compound="c1ccsc1 [thiophene] + CCCCn1cc[n+](C)c1.N#CN=C=[N-]" resultvalue=1.14
compound="CCC(C)CC [3-methylpentane] + CCCCn1cc[n+](C)c1.N#CN=C=[N-]" resultvalue=53.7

====

protocolText: activity coefficient (dimensionless); of the first substance listed, at infinite dilution; xn = mol fraction of the nth substance listed
conditionLabel: 368.15 K; Liquid; Chromatography; x1 = 0
Below: a set of entries, each annotated with reported activity coefficient.
propertyName: activity coefficient

compound="c1ccsc1 [thiophene] + CCCCn1cc[n+](C)c1.N#CN=C=[N-]" resultvalue=1.5
compound="CCC(C)(C)C [2,2-dimethylbutane] + CCCCn1cc[n+](C)c1.N#CN=C=[N-]" resultvalue=46
compound="C#CCCCC [1-hexyne] + CCCCn1cc[n+](C)c1.N#CN=C=[N-]" resultvalue=7.23
compound="CCC(C)CC [3-methylpentane] + CCCCn1cc[n+](C)c1.N#CN=C=[N-]" resultvalue=45.6
compound="CCCOCCC [dipropyl ether] + CCCCn1cc[n+](C)c1.N#CN=C=[N-]" resultvalue=20.6
compound="C=CCCC [1-pentene] + CCCCn1cc[n+](C)c1.N#CN=C=[N-]" resultvalue=17.3
compound="CCCCC [pentane] + CCCCn1cc[n+](C)c1.N#CN=C=[N-]" resultvalue=34.9
compound="CCCCO [butan-1-ol] + CCCCn1cc[n+](C)c1.N#CN=C=[N-]" resultvalue=1.15
compound="CCCO [propan-1-ol] + CCCCn1cc[n+](C)c1.N#CN=C=[N-]" resultvalue=0.871
compound="CC(C)c1ccccc1 [isopropylbenzene] + CCCCn1cc[n+](C)c1.N#CN=C=[N-]" resultvalue=8.3
compound="CC(C)CO [2-methyl-1-propanol] + CCCCn1cc[n+](C)c1.N#CN=C=[N-]" resultvalue=1.09
compound="Cc1ccccc1C [1,2-dimethylbenzene] + CCCCn1cc[n+](C)c1.N#CN=C=[N-]" resultvalue=4.57
compound="O [water] + CCCCn1cc[n+](C)c1.N#CN=C=[N-]" resultvalue=0.376
compound="CCC(=O)OC [methyl propanoate] + CCCCn1cc[n+](C)c1.N#CN=C=[N-]" resultvalue=2.92
compound="CC(C)CC(C)(C)C [2,2,4-trimethylpentane] + CCCCn1cc[n+](C)c1.N#CN=C=[N-]" resultvalue=89.2
compound="C=C(C)c1ccccc1 [(1-methylethenyl)benzene] + CCCCn1cc[n+](C)c1.N#CN=C=[N-]" resultvalue=4.51
compound="CC(C)O [propan-2-ol] + CCCCn1cc[n+](C)c1.N#CN=C=[N-]" resultvalue=0.963
compound="C1CCCCCC1 [cycloheptane] + CCCCn1cc[n+](C)c1.N#CN=C=[N-]" resultvalue=27.3
compound="C1CCCC1 [cyclopentane] + CCCCn1cc[n+](C)c1.N#CN=C=[N-]" resultvalue=15.1
compound="CC(C)=O [acetone] + CCCCn1cc[n+](C)c1.N#CN=C=[N-]" resultvalue=1.27
compound="CCOCC [diethyl ether] + CCCCn1cc[n+](C)c1.N#CN=C=[N-]" resultvalue=7.95
compound="Cc1ccccc1 [toluene] + CCCCn1cc[n+](C)c1.N#CN=C=[N-]" resultvalue=3.54
compound="Cc1cccc(C)c1 [1,3-dimethylbenzene] + CCCCn1cc[n+](C)c1.N#CN=C=[N-]" resultvalue=5.56

====

protocolText: activity coefficient (dimensionless); of the first substance listed, at infinite dilution; xn = mol fraction of the nth substance listed
conditionLabel: 338.15 K; Liquid; Chromatography; x1 = 0
propertyName: activity coefficient

compound="C#CCCC [1-pentyne] + CCCCn1cc[n+](C)c1.N#CN=C=[N-]" resultvalue=4.16
compound="CCCCCC [hexane] + CCCCn1cc[n+](C)c1.N#CN=C=[N-]" resultvalue=57.1
compound="CCC(=O)CC [pentan-3-one] + CCCCn1cc[n+](C)c1.N#CN=C=[N-]" resultvalue=2.27
compound="CC(C)=O [acetone] + CCCCn1cc[n+](C)c1.N#CN=C=[N-]" resultvalue=1.11

====

Reported activity coefficient values follow for various molecules
protocolText: activity coefficient (dimensionless); of the first substance listed, at infinite dilution; xn = mol fraction of the nth substance listed
conditionLabel: 358.15 K; Liquid; Chromatography; x1 = 0
propertyName: activity coefficient

molecule="CCC(C)(C)OC [2-methoxy-2-methylbutane] + CCCCn1cc[n+](C)c1.N#CN=C=[N-]" resultvalue=12.2
molecule="c1ccccc1 [benzene] + CCCCn1cc[n+](C)c1.N#CN=C=[N-]" resultvalue=2.19
molecule="C1CCCCCCC1 [cyclooctane] + CCCCn1cc[n+](C)c1.N#CN=C=[N-]" resultvalue=35.8
molecule="CCCCCCCC [octane] + CCCCn1cc[n+](C)c1.N#CN=C=[N-]" resultvalue=111
molecule="CC(C)CC(C)(C)C [2,2,4-trimethylpentane] + CCCCn1cc[n+](C)c1.N#CN=C=[N-]" resultvalue=92.8
molecule="Cc1cccc(C)c1 [1,3-dimethylbenzene] + CCCCn1cc[n+](C)c1.N#CN=C=[N-]" resultvalue=5.38
molecule="CC(C)c1ccccc1 [isopropylbenzene] + CCCCn1cc[n+](C)c1.N#CN=C=[N-]" resultvalue=8.11
molecule="CC(C)OC(C)C [diisopropyl ether] + CCCCn1cc[n+](C)c1.N#CN=C=[N-]" resultvalue=21.8
molecule="CC1CCCCC1 [methylcyclohexane] + CCCCn1cc[n+](C)c1.N#CN=C=[N-]" resultvalue=33.6
molecule="C1COCCO1 [1,4-dioxane] + CCCCn1cc[n+](C)c1.N#CN=C=[N-]" resultvalue=1.36
molecule="c1ccsc1 [thiophene] + CCCCn1cc[n+](C)c1.N#CN=C=[N-]" resultvalue=1.43
molecule="CC(C)O [propan-2-ol] + CCCCn1cc[n+](C)c1.N#CN=C=[N-]" resultvalue=0.956
molecule="CC#N [acetonitrile] + CCCCn1cc[n+](C)c1.N#CN=C=[N-]" resultvalue=0.904
molecule="CCOC(C)(C)C [2-ethoxy-2-methylpropane] + CCCCn1cc[n+](C)c1.N#CN=C=[N-]" resultvalue=19.3
molecule="C=Cc1ccccc1 [styrene] + CCCCn1cc[n+](C)c1.N#CN=C=[N-]" resultvalue=2.65
molecule="Cc1ccccc1 [toluene] + CCCCn1cc[n+](C)c1.N#CN=C=[N-]" resultvalue=3.4
molecule="C=CCCCCC [1-heptene] + CCCCn1cc[n+](C)c1.N#CN=C=[N-]" resultvalue=37.3
molecule="CCC[N+](=O)[O-] [1-nitropropane] + CCCCn1cc[n+](C)c1.N#CN=C=[N-]" resultvalue=1.45
molecule="CCO [ethanol] + CCCCn1cc[n+](C)c1.N#CN=C=[N-]" resultvalue=0.686
molecule="CO [methanol] + CCCCn1cc[n+](C)c1.N#CN=C=[N-]" resultvalue=0.442
molecule="CC(C)(C)O [2-methylpropan-2-ol] + CCCCn1cc[n+](C)c1.N#CN=C=[N-]" resultvalue=1.21
molecule="Cc1ccccc1C [1,2-dimethylbenzene] + CCCCn1cc[n+](C)c1.N#CN=C=[N-]" resultvalue=4.42
molecule="CCC(=O)CC [pentan-3-one] + CCCCn1cc[n+](C)c1.N#CN=C=[N-]" resultvalue=2.49
molecule="CCOC(C)=O [ethyl acetate] + CCCCn1cc[n+](C)c1.N#CN=C=[N-]" resultvalue=3
molecule="Cc1ccc(C)cc1 [1,4-dimethylbenzene] + CCCCn1cc[n+](C)c1.N#CN=C=[N-]" resultvalue=5.18

====

protocolText: activity coefficient (dimensionless); of the first substance listed, at infinite dilution; xn = mol fraction of the nth substance listed
conditionLabel: 318.15 K; Liquid; Chromatography; x1 = 0
Please use 1 whenever activity coefficient is not below 5, and -1 whenever it is.

compound="C=Cc1ccccc1 [styrene] + CCCCn1cc[n+](C)c1.N#CN=C=[N-]" group=-1
compound="CCC[N+](=O)[O-] [1-nitropropane] + CCCCn1cc[n+](C)c1.N#CN=C=[N-]" group=-1
compound="CCCO [propan-1-ol] + CCCCn1cc[n+](C)c1.N#CN=C=[N-]" group=-1
compound="C1CCCCCCC1 [cyclooctane] + CCCCn1cc[n+](C)c1.N#CN=C=[N-]" group=1
compound="CCCOCCC [dipropyl ether] + CCCCn1cc[n+](C)c1.N#CN=C=[N-]" group=1
compound="CCc1ccccc1 [ethylbenzene] + CCCCn1cc[n+](C)c1.N#CN=C=[N-]" group=-1
compound="CCOC(C)=O [ethyl acetate] + CCCCn1cc[n+](C)c1.N#CN=C=[N-]" group=-1
compound="CC1CCCCC1 [methylcyclohexane] + CCCCn1cc[n+](C)c1.N#CN=C=[N-]" group=1
compound="C1CCCC1 [cyclopentane] + CCCCn1cc[n+](C)c1.N#CN=C=[N-]" group=1
compound="CCCc1ccccc1 [propylbenzene] + CCCCn1cc[n+](C)c1.N#CN=C=[N-]" group=1
compound="CCCCC [pentane] + CCCCn1cc[n+](C)c1.N#CN=C=[N-]" group=1
compound="CCCCCCCCC [nonane] + CCCCn1cc[n+](C)c1.N#CN=C=[N-]" group=1
compound="C=C(C)c1ccccc1 [(1-methylethenyl)benzene] + CCCCn1cc[n+](C)c1.N#CN=C=[N-]" group=-1
compound="C=CCCCC [hex-1-ene] + CCCCn1cc[n+](C)c1.N#CN=C=[N-]" group=1
compound="COC(C)=O [methyl ethanoate] + CCCCn1cc[n+](C)c1.N#CN=C=[N-]" group=-1
compound="CCC(C)O (stereo not drawn) [butan-2-ol] + CCCCn1cc[n+](C)c1.N#CN=C=[N-]" group=-1
compound="Cc1ccccc1C [1,2-dimethylbenzene] + CCCCn1cc[n+](C)c1.N#CN=C=[N-]" group=-1
compound="CC(C)(C)O [2-methylpropan-2-ol] + CCCCn1cc[n+](C)c1.N#CN=C=[N-]" group=-1
compound="C1CCCCC1 [cyclohexane] + CCCCn1cc[n+](C)c1.N#CN=C=[N-]" group=1
compound="C#CCCCC [1-hexyne] + CCCCn1cc[n+](C)c1.N#CN=C=[N-]" group=1
compound="CC#N [acetonitrile] + CCCCn1cc[n+](C)c1.N#CN=C=[N-]" group=-1
compound="CCC(=O)OC [methyl propanoate] + CCCCn1cc[n+](C)c1.N#CN=C=[N-]" group=-1
compound="CCCCCCCCCC [decane] + CCCCn1cc[n+](C)c1.N#CN=C=[N-]" group=1
compound="c1ccccc1 [benzene] + CCCCn1cc[n+](C)c1.N#CN=C=[N-]" group=-1
compound="CCC(=O)CC [pentan-3-one] + CCCCn1cc[n+](C)c1.N#CN=C=[N-]" group=-1
compound="CC(C)=O [acetone] + CCCCn1cc[n+](C)c1.N#CN=C=[N-]" group=-1
compound="c1ccncc1 [pyridine] + CCCCn1cc[n+](C)c1.N#CN=C=[N-]" group=-1
compound="Cc1ccc(C)cc1 [1,4-dimethylbenzene] + CCCCn1cc[n+](C)c1.N#CN=C=[N-]" group=-1
